- protocol-text: PG796(MRx102) solubility in emulsion formulations
- Format: physicochemical
- test-settings: emulsion formulation, aqueous with cosolvent or surfactant or cyclodextrin; emulsion target pH 5.0 (acetate); 1 wk
reported-metric: solubility at 1 wk (µg/mL)
Record the value in µg/mL, omitting the unit from your answer.

Data request: Consider the compound CC(C)[C@]12O[C@H]1[C@@H]1O[C@]13[C@]1(O[C@H]1C[C@H]1c4c(C(=O)c5ccccc5)oc(OC(=O)c5ccccc5)c4CC[C@@]13C)[C@@H]2O and give its measured solubility at 1 wk.
Data returned: 972

---

- protocol-text: PG796(MRx102) solubility in emulsion formulations
- Assay type: physicochemical
- test-settings: emulsion formulation, aqueous with cosolvent or surfactant or cyclodextrin; emulsion target pH 7.0 (phosphate); 2 wk
reported-metric: solubility at 2 wk (µg/mL)
Quick note: give the figure in µg/mL, leave out the unit.

Data request: Looking for the measured solubility at 2 wk of CC(C)[C@]12O[C@H]1[C@@H]1O[C@]13[C@]1(O[C@H]1C[C@H]1c4c(C(=O)c5ccccc5)oc(OC(=O)c5ccccc5)c4CC[C@@]13C)[C@@H]2O , can you help?
Data returned: 822
